Where do the numbers come from? From patent US8440720B2.

target_or_system: M2(S31) (Influenza A virus, UniProt P0DOF5)
Construct: expressed in transfected cells; host or cells: CHO cell membranes
Sequence (P0DOF5 whole entry): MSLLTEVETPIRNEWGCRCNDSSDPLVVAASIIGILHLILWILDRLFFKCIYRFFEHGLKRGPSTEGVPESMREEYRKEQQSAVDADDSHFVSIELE
assay_procedure: Cell-free electrophysiology of M2 proton channels on solid supported membranes (IonGate SURFE2R)
Type: biochemical
assay_context: 25 μM compound, activation by pH jump 7.0 to 6.0, read-out: IonGate_M2(S31)_Screen % Inhibition at 25 μM
measured_parameter: inhibition at 25 µM

See these solved cases before continuing.
NC12CC3CC(C1)CC(S)(C3)C2
51 to 95%
N#CC1C2CC3CC1CC(N)(C3)C2 (stereo not drawn)
51 to 95%
NCC12CC3CC(C1)C(F)C(C3)C2 (stereo not drawn)
51 to 95%
NCC(O)C12CC3CC(CC(C3)C1)C2 (racemic)
51 to 95%
O=[N+]([O-])CC12CC3CC(C1)C(O)C(C3)C2 (stereo not drawn)
11 to 50%

Task: Fill in: inhibition at 25 µM of N#CC1C2CC3CC1CC(CN)(C3)C2 (stereo not drawn) is ___
Output: 51 to 95%

Task: Fill in: inhibition at 25 µM of `Nc1nc(N)n(C23CC4CC(CC(C4)C2)C3)n1` is ___
Output: 11 to 50%

Task: Fill in: inhibition at 25 µM of `NC12CC3CC(C1)C(=NO)C(C3)C2` is ___
Output: 11 to 50%

Task: Fill in: inhibition at 25 µM of `NC12CC3CC(C1)C(=O)C(C3)C2` is ___
Output: 11 to 50%

Task: Fill in: inhibition at 25 µM of `NC12CC3CC(C1)C1(OCCO1)C(C3)C2` is ___
Output: 11 to 50%

Task: Fill in: inhibition at 25 µM of `c1cn(C23CC4CC(CC(C4)C2)C3)cn1` is ___
Output: 11 to 50%

Task: Fill in: inhibition at 25 µM of `NC12CC3CC(C1)C(=S)C(C3)C2` is ___
Output: 11 to 50%
